- Assayed Target: human MGL from HeLa cells (Homo sapiens (Human))
- Assay Notes: MGL in vitro activity assay ([glycerol-1,3-3H]-oleoyl glycerol hydrolysis, activated carbon filtration)
- Conditions: 300 nM [Glycerol-1,3-3H]-oleoyl glycerol, one hour
# if measured IC50 < 20 nM: rule met  # else: rule not met

I'd appreciate it if you could check whether Cc1ccc(C2CCC3(C2)CN(C(=O)[C@H]2C[C@@](C)(O)C2)C3)c(C)c1 (mixture of isomers) [Example 14] has IC50 smaller than 20 nM.
rule not met

I'd appreciate it if you could check whether COc1nc(OC2CCC3(CC2)CN(C(=O)[C@H]2C[C@@](C)(O)C2)C3)ccc1C [Example 456] has IC50 smaller than 20 nM.
rule met

I'd appreciate it if you could check whether C[C@]1(O)C[C@@H](C(=O)N2CC3(CCC(Oc4ccc(C5CC5)cc4)CC3)C2)C1 [Example 261] has IC50 smaller than 20 nM.
rule met

I'd appreciate it if you could check whether COc1cc(C)cc(C2CCC3(CC2)CN(C(=O)[C@H]2C[C@@](C)(O)C2)C3)c1 [Example 128] has IC50 smaller than 20 nM.
rule not met

I'd appreciate it if you could check whether Cn1ccc2ccc(OC3CCC4(CC3)CN(C(=O)[C@H]3C[C@@](C)(O)C3)C4)nc21 [Example 469] has IC50 smaller than 20 nM.
rule met

I'd appreciate it if you could check whether Cc1c(OC2CCC3(C2)CN(C(=O)[C@H]2C[C@@](C)(O)C2)C3)cccc1C(F)(F)F (mixture of isomers) [Example 253] has IC50 smaller than 20 nM.
rule not met

I'd appreciate it if you could check whether Cn1nc(C(F)(F)F)cc1CC1CC2(C1)CN(C(=O)[C@H]1C[C@@](C)(O)C1)C2 [Example 214] has IC50 smaller than 20 nM.
rule not met

I'd appreciate it if you could check whether C[C@]1(O)C[C@@H](C(=O)N2CC3(CCC(Cc4ccccc4)C3)C2)C1 (mixture of isomers) [Example 234] has IC50 smaller than 20 nM.
rule not met

====

Exercise: state measured IC50 for each of the compounds provided.
- Assayed Target: human MGL from HeLa cells (Homo sapiens (Human), UniProt Q99685)
- Sequence (Q99685 whole entry): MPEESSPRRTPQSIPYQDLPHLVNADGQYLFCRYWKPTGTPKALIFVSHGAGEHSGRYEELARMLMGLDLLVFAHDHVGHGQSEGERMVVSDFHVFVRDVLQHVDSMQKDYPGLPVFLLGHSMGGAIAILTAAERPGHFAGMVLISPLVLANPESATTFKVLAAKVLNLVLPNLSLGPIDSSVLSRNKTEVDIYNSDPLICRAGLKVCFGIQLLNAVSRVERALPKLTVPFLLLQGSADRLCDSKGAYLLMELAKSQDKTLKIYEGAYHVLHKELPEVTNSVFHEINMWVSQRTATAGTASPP
- Assay Notes: MGL in vitro activity assay ([glycerol-1,3-3H]-oleoyl glycerol hydrolysis, activated carbon filtration)
- Conditions: 300 nM [Glycerol-1,3-3H]-oleoyl glycerol, one hour
Just the number in µM, nothing appended.

Kindly indicate its recorded IC50. Item: Cc1nc([C@H](C)C2CC3(C2)CN(C(=O)[C@H]2C[C@@](C)(O)C2)C3)ccc1C(F)(F)F (stereo in doubt)
0.0054

Kindly indicate its recorded IC50. Item: `C[C@]1(O)C[C@@H](C(=O)N2CC3(CC(Cc4ccccc4C(F)(F)F)C3)C2)C1`
0.0041

Kindly indicate its recorded IC50. Item: C[C@]1(O)C[C@@H](C(=O)N2CC3(CC[C@@H](c4cccc(OC(F)(F)F)c4)C3)C2)C1 (stereo in doubt)
0.023

Kindly indicate its recorded IC50. Item: `Cc1cc(C2CC3(C2)CN(C(=O)[C@H]2C[C@@](C)(O)C2)C3)cc(C(F)(F)F)c1`
0.065

====

- Assayed Target: human MGL from HeLa cells (Homo sapiens (Human))
- Assay Notes: MGL in vitro activity assay ([glycerol-1,3-3H]-oleoyl glycerol hydrolysis, activated carbon filtration)
- Conditions: 300 nM [Glycerol-1,3-3H]-oleoyl glycerol, one hour
- From the text: The assay used to measure the in vitro activity of MGL is adapted from the assay used for another serine hydrolase (FAAH) described in Wilson et al., 2003 (A high-throughput-compatible assay for determining the activity of fatty acid amide hydrolase. Wilson S J, Lovenberg T W, Barbier A J. Anal Biochem. 2003 Jul. 15; 318(2):270-5). […]
Exercise: state measured pIC50 for each of the molecules provided.
When answering, recall that pIC50 equals minus log10 of the concentration in mol/L, and write that number alone.

Kindly indicate its recorded pIC50. Item: `Cc1cccc(CC2CC3(C2)CN(C(=O)[C@H]2C[C@@](C)(O)C2)C3)c1C1CC1`
8.77

Kindly indicate its recorded pIC50. Item: `Cc1cc(CC2CC3(C2)CN(C(=O)[C@H]2C[C@@](C)(O)C2)C3)ccc1F`
7.82

Kindly indicate its recorded pIC50. Item: Cc1cc(C)cc([C@H]2CC[C@@]3(CC2)CN(C(=O)[C@H]2C[C@@](C)(O)C2)[C@H]3C)c1 (stereo in doubt)
7.47

Kindly indicate its recorded pIC50. Item: `COc1cccc(C2CCC3(CC2)CN(C(=O)[C@H]2C[C@@](C)(O)C2)C3)c1F`
7.30

Kindly indicate its recorded pIC50. Item: `CC(C)(C)c1cccc(C2CC3(C2)CN(C(=O)[C@H]2C[C@@](C)(O)C2)C3)n1`
7.60

Kindly indicate its recorded pIC50. Item: CC(C)c1cccc(C2CCC3(C2)CN(C(=O)[C@H]2C[C@](O)(C(F)F)C2)C3)c1 (mixture of isomers)
7.42

Kindly indicate its recorded pIC50. Item: `CC(C)(C)c1cccc(OC2CCC3(CC2)CN(C(=O)[C@H]2C[C@@](C)(O)C2)C3)c1`
8.09

Kindly indicate its recorded pIC50. Item: `COc1ccc(C2CCC3(CC2)CN(C(=O)[C@H]2C[C@@](C)(O)C2)C3)cc1C(C)(C)C`
7.70

Kindly indicate its recorded pIC50. Item: C[C@]1(O)C[C@@H](C(=O)N2CC3(CCC(c4ccc(C(F)(F)F)cc4)C3)C2)C1 (mixture of isomers)
7.66

Kindly indicate its recorded pIC50. Item: `Cc1cc(OC2CCC3(CC2)CN(C(=O)[C@H]2C[C@@](C)(O)C2)C3)ncc1C(F)(F)F`
8.02

Kindly indicate its recorded pIC50. Item: `COc1ccc(C)c(C2CCC3(CC2)CN(C(=O)[C@H]2C[C@@](C)(O)C2)C3)c1`
6.79

Kindly indicate its recorded pIC50. Item: `COc1cccc(C2CCC3(CC2)CN(C(=O)[C@H]2C[C@@](C)(O)C2)C3)c1Cl`
7.40

Kindly indicate its recorded pIC50. Item: `COc1nc(CC2CC3(C2)CN(C(=O)[C@H]2C[C@@](C)(O)C2)C3)ccc1C(F)(F)F`
8.92

Kindly indicate its recorded pIC50. Item: `C[C@]1(O)C[C@@H](C(=O)N2CC3(CCC(Oc4ccc(C(F)(F)F)cn4)CC3)C2)C1`
7.54

Kindly indicate its recorded pIC50. Item: Cc1cc(C)cc([C@H]2CC[C@]3(CC2)CN(C(=O)[C@H]2C[C@@](C)(O)C2)[C@@H]3C)c1 (stereo in doubt)
6.28

Kindly indicate its recorded pIC50. Item: `Cc1ccc(OC2CCC3(CC2)CN(C(=O)[C@H]2C[C@](O)(C(F)F)C2)C3)nc1C(F)(F)F`
7.72

Kindly indicate its recorded pIC50. Item: `CC(C)(C)c1ccc(OC2CC3(C2)CN(C(=O)[C@H]2C[C@@](C)(O)C2)C3)cc1`
7.08

Kindly indicate its recorded pIC50. Item: COc1cc(C2CCC3(C2)CN(C(=O)[C@H]2C[C@@](C)(O)C2)C3)ccc1C (mixture of isomers)
7.34

====

- Assayed Target: human MGL from HeLa cells (Homo sapiens (Human), UniProt Q99685)
- Assay Notes: MGL in vitro activity assay ([glycerol-1,3-3H]-oleoyl glycerol hydrolysis, activated carbon filtration)
- Conditions: 300 nM [Glycerol-1,3-3H]-oleoyl glycerol, one hour
- Excerpt: The assay used to measure the in vitro activity of MGL is adapted from the assay used for another serine hydrolase (FAAH) described in Wilson et al., 2003 (A high-throughput-compatible assay for determining the activity of fatty acid amide hydrolase. Wilson S J, Lovenberg T W, Barbier A J. Anal Biochem. 2003 Jul. 15; 318(2):270-5). […]
Exercise: state measured pIC50 for each of the compounds provided.
When answering, recall that pIC50 equals minus log10 of the concentration in mol/L, and write that number alone.

Kindly indicate its recorded pIC50. Item: `Cc1ccc(CC2CCC3(CC2)CN(C(=O)[C@H]2C[C@@](C)(O)C2)C3)cc1`
7.80

Kindly indicate its recorded pIC50. Item: `COc1cccc(CC2CC3(C2)CN(C(=O)[C@H]2C[C@@](C)(O)C2)C3)c1`
7.19

Kindly indicate its recorded pIC50. Item: `Cc1ccc(C2CCC3(CC2)CN(C(=O)[C@H]2C[C@@](C)(O)C2)C3)cc1C`
7.92

Kindly indicate its recorded pIC50. Item: `Cc1nc(CC2CC3(C2)CN(C(=O)[C@H]2C[C@@](C)(O)C2)C3)ccc1OC(F)F`
7.43

====

- Assayed Target: human MGL from HeLa cells (Homo sapiens (Human), UniProt Q99685)
- Assay Notes: MGL in vitro activity assay ([glycerol-1,3-3H]-oleoyl glycerol hydrolysis, activated carbon filtration)
- Conditions: 300 nM [Glycerol-1,3-3H]-oleoyl glycerol, one hour
Exercise: state measured IC50 for each of the molecules provided.
Just the number in nM, nothing appended.

Give reported IC50 for Cc1cc(C2CCC3(C2)CN(C(=O)[C@H]2C[C@@](C)(O)C2)C3)ccc1OC(F)F (mixture of isomers) (human MGL from HeLa cells (Homo sapiens (Human), UniProt Q99685))
4.6

Give reported IC50 for `Cc1cn(C)c2nc(OC3CCC4(CC3)CN(C(=O)[C@H]3C[C@@](C)(O)C3)C4)ccc12` (human MGL from HeLa cells (Homo sapiens (Human), UniProt Q99685))
2

Give reported IC50 for Cn1ncc2cc(C3CCC4(C3)CN(C(=O)[C@H]3C[C@@](C)(O)C3)C4)ccc21 (mixture of isomers) (human MGL from HeLa cells (Homo sapiens (Human), UniProt Q99685))
301

Give reported IC50 for `Cn1ccc2ccc(CC3CCC4(CC3)CN(C(=O)[C@H]3C[C@@](C)(O)C3)C4)nc21` (human MGL from HeLa cells (Homo sapiens (Human), UniProt Q99685))
66
